Source: patent US20240209086A1

biological target: canine CD3 on canine T cells (canine PBMC) (canine, UniProt P27597 22-202); test: cell-based or functional assay
Sequence (P27597 22-202 limits assumed, chain 1 of 3): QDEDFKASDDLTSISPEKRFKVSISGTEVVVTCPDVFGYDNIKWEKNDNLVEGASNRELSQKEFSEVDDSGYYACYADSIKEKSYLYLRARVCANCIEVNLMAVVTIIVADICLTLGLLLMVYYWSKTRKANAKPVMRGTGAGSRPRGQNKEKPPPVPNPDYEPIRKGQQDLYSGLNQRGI
Sequence (chain, as listed by the source limits assumed, chain 2 of 3): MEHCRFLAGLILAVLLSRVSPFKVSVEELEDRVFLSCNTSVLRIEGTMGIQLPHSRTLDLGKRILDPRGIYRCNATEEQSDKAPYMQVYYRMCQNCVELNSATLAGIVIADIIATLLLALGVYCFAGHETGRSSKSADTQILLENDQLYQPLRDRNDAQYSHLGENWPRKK
Sequence (chain, as listed by the source limits assumed, chain 3 of 3): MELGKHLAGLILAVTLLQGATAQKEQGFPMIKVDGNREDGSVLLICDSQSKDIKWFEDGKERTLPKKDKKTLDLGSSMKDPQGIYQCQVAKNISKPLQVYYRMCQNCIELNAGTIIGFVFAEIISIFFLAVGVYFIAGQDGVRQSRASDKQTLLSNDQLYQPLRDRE
Readings of Ki67 Proliferation, Day 9, PB for the listed binders
Give the figure by itself; no unit, no explanation.

Answered cases to consult:
PMX193 (monospecific anti-canine CD3, canine IgG-B effector function deficient Fc) (antibody, V domains shown) VH: EVQLVESGGDLVKPGGSLRLSCVASGFTFSTYHMSWVRQAPGKGLQWVAYISSGGSRTNYADAVKGRFTISRDNAKNTLYLQMNSLRAEDAAVFYCARHYGSSLFDYWGQGTLVTVSS VL: DIVMTQTPLSLSVSPGEPASISCKASQSLLHINGNTYLYWFRQKPGQSPQRLIYKVSNRDPGVPDRFSGSGSGTDFTLRISRVEADDAGVYYCGQGIQDPTFGKGTHLEIK	0.18
PMX195 (monospecific anti-canine CD3, canine IgG-B effector function deficient Fc) (antibody, V domains shown) VH: EVQLVESGGDLVKPAGSLRLSCMASGFTFSSYSMSWVRQAPEKGLQLVAGINGDGSTTYYTDAVKGRFTISRDNAKNTVYLQMNNLRVEDSAMYYCAKGAGTGDYWGQGTLVTVSS VL: SYELTQPPSLNVTLRETAHITCGGDRIGSRYVQWIQQNPGQAPVVVIYKDSNRPTGIPERFSGANSGNTATLTISGALAEDEADYYCQVGDSGNWVFGGGTQLTVL	0.67

Give the reported Ki67 Proliferation, Day 9, PB for this binder. PMX181 (monospecific anti-canine CD3, canine IgG-B effector function deficient Fc) (antibody, V domains shown) VH: ELTLQESGPGLVKPSQTLSLTCIVSGGSVTNNYYWTWIRQRPGRGLEWMGYWTGFTNYNPAFQGRISIIANTAKKQLSLQLSSLTTEDTAVYYCARRAIPTYFDYWGQGTLVTVSS VL: SYVLTQLPSKNVTLKQPAHITCGGDNIGSRSVHWYQQKLGQAPVLIIYYDSSRPTGIPERFSGANSGNTATLTISGALAEDEADYYCQVWDSSASVFGGGTHLTVL
0.7
